These entries and their values trace back to patent US8871753B2.

biological target: human JAK3 (a.a. 781-1124) (Homo sapiens); construct: JAK3 (a.a. 781-1124); His tag (N); made in house; host or cells: insect cells (baculovirus); test: In vitro JAK kinase assay (HTRF, phosphorylation of a biotinylated peptide), JAK3; type: biochemical; settings: Table B1
pIC50: −log10 of the molar value. Counter-ions that a name gives are not always drawn.
valueType: pIC50

{"columns": ["compound", "targetUnderTest", "pIC50"],
 "data": [
  ["Cc1occc1NC(=O)N1CCC(CN(C)Cc2ccc3cc2CCc2cncc(c2)Nc2ncc(Cl)c(n2)N3)CC1 [Example B349, tris(trifluoroacetate)]", "human JAK3 (a.a. 781-1124) (Homo sapiens)", 6.43]
]}

a. O=C(NCCN1CCOCC1)Nc1ccc2cc1CCc1cccc(c1)Nc1ncc(Cl)c(n1)N2 [Example B254, bis(trifluoroacetate)]
b. CN(C)c1ccc(C(=O)Nc2ccc3cc2CCc2cccc(c2)Nc2ncc(Cl)c(n2)N3)cc1 [Example B82, bis(trifluoroacetate)]
Input line: Which record would sort first by descending pIC50, a or b ? Response format: the label of the selected entry.
Output line: a

a. O=C(NCc1ccncc1)Nc1ccc2cc1CCc1cccc(c1)Nc1ncc(Cl)c(n1)N2 [Example B246]
b. O=C(Nc1ccccc1)Nc1cc2cc(c1)Nc1nc(ncc1Cl)Nc1cccc(c1)CC2 [Example B202, trifluoroacetate]
c. O=C(Nc1cccc(F)c1)Nc1cc2cc(c1)Nc1nc(ncc1Cl)Nc1cccc(c1)CC2 [Example B214, trifluoroacetate]
d. O=C(Nc1ccccn1)Nc1ccc2cc1CCc1cccc(c1)Nc1ncc(Cl)c(n1)N2 [Example B253, bis(trifluoroacetate)]
Input line: Arrange the 4 compounds by rising pIC50, starting with the smallest. // rank by listing labels in the order requested
Output line: d, c, b, a

----------
molecular target: human JAK1 (a.a. 837-1142) (Homo sapiens, UniProt P23458); construct: human JAK1 (a.a. 837-1142); His tag (N); made in house; host or cells: insect cells (baculovirus); test: In vitro JAK kinase assay (HTRF, phosphorylation of a biotinylated peptide), JAK1; type: biochemical; details: Table D1; read-out: JAK1 IC50
Sequence (P23458 849-1154): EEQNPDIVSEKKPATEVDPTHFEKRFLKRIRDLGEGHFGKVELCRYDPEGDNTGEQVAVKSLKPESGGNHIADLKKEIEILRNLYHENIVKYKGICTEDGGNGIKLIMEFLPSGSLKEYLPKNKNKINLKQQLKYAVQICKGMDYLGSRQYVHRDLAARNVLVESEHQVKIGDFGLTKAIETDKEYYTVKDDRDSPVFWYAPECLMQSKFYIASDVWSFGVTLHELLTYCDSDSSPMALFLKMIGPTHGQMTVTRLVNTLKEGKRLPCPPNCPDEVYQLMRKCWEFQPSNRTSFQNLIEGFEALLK
pIC50: −log10 of the molar value. Counter-ions that a name gives are not always drawn.
valueType: pIC50

Known pIC50 results, listed for orientation:
{"columns": ["molecule", "targetUnderTest", "pIC50"],
 "data": [
  ["O=C(c1cc2cc(c1)OCCSc1cccc(c1)Nc1nc(ncc1Cl)N2)N1CCN(c2ccccc2)CC1 [Example D53, bis(trifluoroacetate)]", "human JAK1 (a.a. 837-1142) (Homo sapiens, UniProt P23458)", 7.57],
  ["CC(=O)N1CCC(CCNc2ccc3cc2CCc2cncc(c2)Nc2ncc(Cl)c(n2)N3)CC1 [Example D219, tris(trifluoroacetate)]", "human JAK1 (a.a. 837-1142) (Homo sapiens, UniProt P23458)", 7.85],
  ["N#Cc1ccc(N2CCN(C(=O)COc3ccc4cc3CCc3cncc(c3)Nc3ncc(Cl)c(n3)N4)CC2)cc1 [Example D236, tris(trifluoroacetate)]", "human JAK1 (a.a. 837-1142) (Homo sapiens, UniProt P23458)", 7.05]
]}

1. Clc1cnc2nc1Nc1cccc(c1)CCSCc1cccc(c1)N2 [Example D34, trifluoroacetate]
2. O=C(NCc1ccco1)Nc1cc2cc(c1)OCCSc1cccc(c1)Nc1nc(ncc1Cl)N2 [Example D67, trifluoroacetate]
3. COC(=O)N1CCN(C(=O)COc2ccc3cc2CCc2cncc(c2)Nc2ncc(Cl)c(n2)N3)CC1 [Example D261, bis(trifluoroacetate)]
Input line: Arrange the 3 molecules by rising pIC50, starting with the smallest. // rank by listing labels in the order requested
Output line: 1, 3, 2
(1: 6.91, 3: 7.51, 2: 8.49)

----------
molecular target: human JAK1 (a.a. 837-1142) (Homo sapiens); construct: human JAK1 (a.a. 837-1142); His tag (N); made in house; host or cells: insect cells (baculovirus); test: In vitro JAK kinase assay (HTRF, phosphorylation of a biotinylated peptide), JAK1; type: biochemical; details: Table D1; read-out: JAK1 IC50
Structures can show the parent of a compound that is named as a salt.
valueType: IC50 (nM)

Known IC50 results, listed for orientation:
{"columns": ["compound", "valueType", "numericValue"],
 "data": [
  ["O=C(COc1ccc2cc1CCc1cncc(c1)Nc1ncc(Cl)c(n1)N2)N1CCN(c2ccccn2)CC1 [Example D231, tris(trifluoroacetate)]", "IC50", 52],
  ["O=C(COc1ccc2cc1CCc1cncc(c1)Nc1ncc(Cl)c(n1)N2)N1CCN(c2cc(Cl)ccn2)CC1 [Example D244, tris(trifluoroacetate)]", "IC50", 80],
  ["Cc1ccnc(N2CCN(C(=O)COc3ccc4cc3CCc3cncc(c3)Nc3ncc(Cl)c(n3)N4)CC2)c1 [Example D237, tris(trifluoroacetate)]", "IC50", 29]
]}

1. O=C(Nc1ccc(F)cc1)N1CCC(CCOc2ccc3cc2CCc2cncc(c2)Nc2ncc(Cl)c(n2)N3)CC1 [Example D168, bis(trifluoroacetate)]
2. N#Cc1ccc2cc1OCCSc1cccc(c1)Nc1nc(ncc1Cl)N2 [Example D81, trifluoroacetate]
3. O=C(NC1CCCC1)N1CCN(c2cc(-c3cc4cc(c3)Nc3ncc(Cl)c(n3)Nc3cccc(c3)OCC4)ccn2)CC1 [Example D46, bis(trifluoroacetate)]
Input line: Ordering criterion: IC50; begin with the maximum. // rank by listing labels in the order requested
Output line: 1, 2, 3
(1: 34 nM, 2: 12 nM, 3: 4.7 nM)

----------
molecular target: human JAK3 (a.a. 781-1124) (Homo sapiens, UniProt P52333); construct: JAK3 (a.a. 781-1124); His tag (N); made in house; host or cells: insect cells (baculovirus); assay: In vitro JAK kinase assay (HTRF, phosphorylation of a biotinylated peptide), JAK3; format: biochemical; conditions: Table B1
Sequence (P52333 781-1124): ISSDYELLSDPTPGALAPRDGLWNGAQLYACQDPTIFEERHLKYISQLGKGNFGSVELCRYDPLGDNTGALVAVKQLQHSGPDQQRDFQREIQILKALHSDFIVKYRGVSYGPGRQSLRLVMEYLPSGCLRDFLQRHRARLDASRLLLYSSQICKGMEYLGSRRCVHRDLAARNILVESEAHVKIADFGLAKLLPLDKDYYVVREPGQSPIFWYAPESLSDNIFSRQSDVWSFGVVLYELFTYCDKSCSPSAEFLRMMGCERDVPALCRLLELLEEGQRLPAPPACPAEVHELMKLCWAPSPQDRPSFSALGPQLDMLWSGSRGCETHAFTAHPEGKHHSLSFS
Structures can show the parent of a compound that is named as a salt.
valueType: IC50 (nM)

Known IC50 results, listed for orientation:
{"columns": ["compound", "numericValue"],
 "data": [
  ["O=C(Nc1ccc2cc1CCc1cccc(c1)Nc1ncc(Cl)c(n1)N2)Nc1ccccc1OC(F)F [Example B128, trifluoroacetate]", 13],
  ["O=C(Nc1nnn[nH]1)Nc1ccc2cc1CCc1cccc(c1)Nc1ncc(Cl)c(n1)N2 [Example B251, trifluoroacetate]", 4.2]
]}

P. O=C(Nc1ccc2cc1CCc1cccc(c1)Nc1ncc(Cl)c(n1)N2)c1ccc2c(c1)OCO2 [Example B71, trifluoroacetate]
Q. N#CNC(=O)Nc1ccc2cc1CCc1cccc(c1)Nc1ncc(Cl)c(n1)N2 [Example B323, trifluoroacetate]
R. O=C(Nc1ccc2cc1CCc1cccc(c1)Nc1ncc(Cl)c(n1)N2)c1cccs1 [Example B34, trifluoroacetate]
Input line: Ordering criterion: IC50; begin with the maximum. // rank by listing labels in the order requested
Output line: P, R, Q
(P: 24 nM, R: 13 nM, Q: 2.1 nM)

----------
molecular target: human JAK3 (a.a. 781-1124) (Homo sapiens); construct: JAK3 (a.a. 781-1124); His tag (N); made in house; host or cells: insect cells (baculovirus); assay: In vitro JAK kinase assay (HTRF, phosphorylation of a biotinylated peptide), JAK3; assay type: biochemical; settings: Table B1
Structures can show the parent of a compound that is named as a salt.
valueType: IC50 (nM)

Known IC50 results, listed for orientation:
{"columns": ["compound", "IC50, nM"],
 "data": [
  ["CC(=O)Nc1ccc(C(=O)Nc2ccc3cc2CCc2cccc(c2)Nc2ncc(Cl)c(n2)N3)cc1 [Example B45, trifluoroacetate]", 3.7],
  ["Cc1cc(C(=O)Nc2ccc3cc2CCc2cccc(c2)Nc2ncc(Cl)c(n2)N3)no1 [Example B68, trifluoroacetate]", 19],
  ["O=C(Nc1cccc(Cl)c1)Nc1ccc2cc1CCc1cccc(c1)Nc1ncc(Cl)c(n1)N2 [Example B85, trifluoroacetate]", 39],
  ["Cc1ncoc1C(=O)Nc1cc2cc(c1)Nc1nc(ncc1Cl)Nc1cccc(c1)CC2 [Example B210, trifluoroacetate]", 76],
  ["CN(C)C(=O)Nc1ccc2cc1CCc1cccc(c1)Nc1ncc(Cl)c(n1)N2 [Example B239, trifluoroacetate]", 35],
  ["Cc1nc(S(=O)(=O)Nc2ccc3cc2CCc2cccc(c2)Nc2ncc(Cl)c(n2)N3)cn1C [Example B151, bis(trifluoroacetate)]", 36],
  ["Cn1cnc(S(=O)(=O)Nc2ccc3cc2CCc2cccc(c2)Nc2ncc(Cl)c(n2)N3)c1 [Example B144, bis(trifluoroacetate)]", 4.2],
  ["O=C(NCc1ccncc1)c1cc2cc(c1)Nc1nc(ncc1Cl)Nc1cccc(c1)CC2 [Example B11, bis(trifluoroacetate)]", 144]
]}

a. O=C(NCc1ccco1)Nc1ccc2cc1CCc1cccc(c1)Nc1ncc(Cl)c(n1)N2 [Example B117, trifluoroacetate]
b. OCc1cc2cc(c1)Nc1nc(ncc1Cl)Nc1cccc(c1)CC2 [Example B24, trifluoroacetate]
c. COCC(C)NC(=O)Nc1ccc2cc1CCc1cccc(c1)Nc1ncc(Cl)c(n1)N2 (stereo not drawn) [Example B247]
d. Clc1cnc2nc1Nc1ccc(Nc3nc4cccnc4o3)c(c1)CCc1cccc(c1)N2 [Example B333, tris(trifluoroacetate)]
e. Cc1cc(C(=O)N2CCC(NC(=O)Nc3ccc4cc3CCc3cccc(c3)Nc3ncc(Cl)c(n3)N4)CC2)no1 [Example B263, trifluoroacetate]
Input line: Arrange the 5 compounds by rising IC50, starting with the smallest. // rank by listing labels in the order requested
Output line: d, b, a, c, e
